meta.source: patent US11384063B2

Catalogue of molecules with associated DC50
- tested target: ERα (Homo sapiens)
- assay notes: Estrogen receptor-alpha (ERα) degradation assay in MCF-7 cells using western blot
- Type: cell-based
- Parameters: assessed for their activity in degrading ERα in MCF-7 cells via western blot; endogenous in cells; host or cells: MCF7 cells
- run conditions: ER-alpha degradation, MCF7 cells, 3 days of incubation
measured property: DC50

Cc1ncsc1-c1ccc(CNC(=O)[C@@H]2C[C@@H](O)CN2C(=O)[C@@H](NC(=O)CN2CCC(N3CC(OCCOc4ccc(Oc5c(-c6ccc(Br)cc6)sc6cc(O)ccc56)cc4)C3)CC2)C(C)(C)C)cc1 :: 1 to 10 nM
Cc1ncsc1-c1ccc(CNC(=O)[C@@H]2C[C@@H](O)CN2C(=O)[C@@H](NC(=O)COCCCCOc2ccc(-c3ccc(Oc4c(-c5ccc(F)cc5)sc5cc(O)ccc45)cc3)nc2)C(C)(C)C)cc1 :: 1 to 10 nM
Cc1ncsc1-c1ccc(CNC(=O)[C@@H]2C[C@@H](O)CN2C(=O)[C@@H](NC(=O)COCCN2CCN(CCOc3ccc(Oc4c(-c5ccc(Cl)cc5)sc5cc(O)ccc45)cc3)CC2)C(C)(C)C)cc1 :: < 1 nM
Cc1ncsc1-c1ccc([C@H](C)NC(=O)[C@@H]2C[C@@H](O)CN2C(=O)[C@@H](NC(=O)COCCOCCOCCOc2ccc(Oc3c(-c4ccc(Cl)cc4)sc4cc(O)ccc34)cc2)C(C)(C)C)cc1 :: 1 to 10 nM
Cc1ncsc1-c1ccc(CNC(=O)[C@@H]2C[C@@H](O)CN2C(=O)[C@@H](NC(=O)COCCOCCn2ccc(-c3ccc(Oc4c(-c5ccc(F)cc5)sc5cc(O)ccc45)cc3)cc2=O)C(C)(C)C)cc1 :: 1 to 10 nM
Cc1ncsc1-c1ccc(CNC(=O)[C@@H]2C[C@@H](O)CN2C(=O)[C@@H](NC(=O)COCCN2CCN(CCOc3ccc(Oc4c(-c5ccc(Br)cc5)sc5cc(O)ccc45)cc3)CC2)C(C)(C)C)cc1 :: 1 to 10 nM
Cc1ncsc1-c1ccc([C@H](C)NC(=O)[C@@H]2C[C@@H](O)CN2C(=O)[C@@H](NC(=O)Cc2ccc(-c3ccn(CCOc4ccc(Oc5c(-c6ccc(F)cc6)sc6cc(O)ccc56)cc4)n3)cc2)C(C)(C)C)cc1 :: 1 to 10 nM
C[C@H](NC(=O)[C@@H]1C[C@@H](O)CN1C(=O)[C@@H](NC(=O)Cc1ccc(-c2ccn(CCOc3ccc(Oc4c(-c5ccc(F)cc5)sc5cc(O)ccc45)cc3)n2)cc1)C(C)(C)C)c1ccc(Cl)cc1 :: 10 to 100 nM
C[C@H](NC(=O)[C@@H]1C[C@@H](O)CN1C(=O)[C@@H](NC(=O)COCCOCCN(C)CCOc1ccc(Oc2c(-c3ccc(F)cc3)sc3cc(O)ccc23)cc1)C(C)(C)C)c1ccc(Cl)cc1 :: 1 to 10 nM

* * *

Catalogue of molecules with associated IC50
- tested target: ERα (Homo sapiens, UniProt P03372)
- Sequence (P03372 whole entry): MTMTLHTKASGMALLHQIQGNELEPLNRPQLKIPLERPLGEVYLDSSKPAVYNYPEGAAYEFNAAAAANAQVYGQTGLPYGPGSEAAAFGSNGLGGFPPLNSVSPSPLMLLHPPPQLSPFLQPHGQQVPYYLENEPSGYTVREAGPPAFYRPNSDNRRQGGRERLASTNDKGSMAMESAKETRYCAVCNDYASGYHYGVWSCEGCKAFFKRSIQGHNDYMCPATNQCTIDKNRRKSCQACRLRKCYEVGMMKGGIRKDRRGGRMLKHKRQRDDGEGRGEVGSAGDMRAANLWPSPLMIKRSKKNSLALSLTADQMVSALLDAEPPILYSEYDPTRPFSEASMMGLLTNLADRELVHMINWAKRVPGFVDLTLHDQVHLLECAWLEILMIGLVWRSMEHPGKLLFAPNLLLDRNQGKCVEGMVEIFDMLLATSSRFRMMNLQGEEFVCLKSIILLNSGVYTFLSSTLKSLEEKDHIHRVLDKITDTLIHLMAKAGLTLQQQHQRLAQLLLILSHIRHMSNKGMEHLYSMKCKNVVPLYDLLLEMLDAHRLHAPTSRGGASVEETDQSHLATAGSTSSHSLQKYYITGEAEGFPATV
- assay notes: ERE luciferase reporter gene assay in T47D-KBluc cells (target engagement)
- Assay type: cell-based
- Parameters: T47D human breast cancer cells stably transfected with estrogen responsive element/promoter/luciferase reporter gene; host or cells: T47D-KBluc cells
- run conditions: 10% FBS, 24 hours, Table 1 cereblon centric PROTACs, read-out: ER-α Luciferase IC50
measured property: IC50

O=C1CCC(N2Cc3c(NCCN4CCN(CCOc5ccc(Oc6c(-c7ccc(Br)cc7)sc7cc(O)ccc67)cc5)CC4)cccc3C2=O)C(=O)N1 (centres unmarked) :: 0.9 nM
O=C1CCC(N2C(=O)c3ccc(OCCCOCCOc4ccc(Oc5c(-c6ccc(Br)cc6)sc6cc(O)ccc56)cc4)cc3C2=O)C(=O)N1 (centres unmarked) :: 17 nM
O=C1CCC(N2Cc3c(OCCOCCOCCOCCOCCOc4ccc(Oc5c(-c6ccc(Br)cc6)sc6cc(O)ccc56)cc4)cccc3C2=O)C(=O)N1 (centres unmarked) :: 8.6 nM
O=C1CCC(N2C(=O)c3cccc(NCCOCCOCCOCCOc4ccc(Oc5c(-c6ccc(Br)cc6)sc6cc(O)ccc56)cc4)c3C2=O)C(=O)N1 (centres unmarked) :: 22.4 nM
O=C1CCC(N2C(=O)c3ccc(NCCCC4CCN(CCOc5ccc(Oc6c(-c7ccc(Br)cc7)sc7cc(O)ccc67)cc5)CC4)cc3C2=O)C(=O)N1 (centres unmarked) :: 5.9 nM
